These data points were gathered from ChEMBL document CHEMBL1697681.

- Tested on: Phospholipidosis
- METHOD_SUMMARY: Literature-mined public compounds from Lowe et al phospholipidosis modelling dataset
MEASURED_PROPERTY: Phospholipidosis

Example results:
INSERT INTO assay_data (compound, test_result) VALUES
  ('O=C(N[C@H](CO)[C@H](O)c1ccc([N+](=O)[O-])cc1)C(Cl)Cl', 'Positive'),
  ('CN(C)[C@@H]1C(O)=C(C(N)=O)C(=O)[C@@]2(O)C(O)=C3C(=O)c4c(O)cccc4[C@@](C)(O)[C@H]3C[C@@H]12', 'Negative'),
  ('C=CC1=C(C)/C(=C/c2[nH]c(Cc3[nH]c(/C=C4\NC(=O)C(C)=C4C=C)c(C)c3CCC(=O)O)c(CCC(=O)O)c2C)NC1=O', 'Positive'),
  ('CN(C)CCCC1(c2ccc(F)cc2)OCc2cc(C#N)ccc21 (configuration not stated)', 'Positive'),
  ('CN(C)CCON=C1c2ccccc2CCc2ccccc21', 'Positive'),
  ('CC(=O)O[C@]1(C(C)=O)CC[C@H]2[C@@H]3C=C(Cl)C4=CC(=O)[C@@H]5C[C@@H]5[C@]4(C)[C@H]3CC[C@@]21C [CYPROTERONE ACETATE]', 'Negative');

**Query** So what Phospholipidosis did COCCCC/C(=N\OCCN)c1ccc(C(F)(F)F)cc1 get with Phospholipidosis?
**Result** Positive
